# credit: the supplement of paper PMC8728848

tested system: Man(a1-3)[Man(a1-6)]Man(a1-6)[Man(a1-3)]Man
assay name: glycan array binding signal (z-score within array); higher = stronger binding
run conditions: glycan notation: IUPAC condensed, linker removed
The sample as a whole holds a higher share of the strongest signals than the screen did.
test readout: glycan array binding signal (z-score)

Which glycan array binding signal (z-score) is listed for Clone646PsrP (Streptococcus pneumoniae) (protein) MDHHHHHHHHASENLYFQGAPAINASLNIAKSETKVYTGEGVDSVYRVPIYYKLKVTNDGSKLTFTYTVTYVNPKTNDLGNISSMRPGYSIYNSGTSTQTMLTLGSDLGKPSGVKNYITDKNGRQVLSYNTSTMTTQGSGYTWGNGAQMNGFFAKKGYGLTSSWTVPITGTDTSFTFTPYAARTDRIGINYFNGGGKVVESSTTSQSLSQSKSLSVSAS ?
3.32
